Test system: KB-8511, Taxol-resistant (Pgp-overexpression) KB cell line
Settings: human, 72 h
quantity: IC50 (nM)
Write the answer as a number in nM, unit excluded.

Quote IC50 reported for CSc1nc(/C=C(\C)[C@@H]2C[C@@H]3O[C@]3(C)CCC[C@H](C)[C@H](O)[C@@H](C)C(=O)C(C)(C)[C@@H](O)CC(=O)O2)cs1 [Compound 3, reference compound] please.
0.07

---

Listing of entries alongside the reported IC50.
Test system: KB-8511, Taxol-resistant (Pgp-overexpression) KB cell line
Experiment: 72 hour growth-inhibition (cytotoxicity) assay, KB-8511 cells
Conditions: read-out: IC50, KB-5811 (Table 2); Table 2, tested epothilone; cell line KB-5811; unit from Table 1A note a
Write the numeric value and follow it with the unit.

These recorded examples may help you get a feel for the data.
C/C(=C\c1nc2ccccc2s1)[C@@H]1C[C@@H]2O[C@]2(C)CCC[C@H](C)[C@H](O)[C@@H](C)C(=O)C(C)(C)[C@@H](O)CC(=O)O1    0.08 nM
C/C(=C\c1ccn(C)n1)[C@@H]1C[C@@H]2O[C@]2(C)CCC[C@H](C)[C@H](O)[C@@H](C)C(=O)C(C)(C)[C@@H](O)CC(=O)O1    0.25 nM
CSc1cc(/C=C(\C)[C@@H]2C[C@@H]3O[C@]3(C)CCC[C@H](C)[C@H](O)[C@@H](C)C(=O)C(C)(C)[C@@H](O)CC(=O)O2)nn1C    0.14 nM

Proceeding to the next molecule to report its IC50.
Write down IC50 measured for item CSc1nc(/C=C(\C)[C@@H]2C[C@@H]3C[C@]3(C)CCC[C@H](C)[C@H](O)[C@@H](C)C(=O)C(C)(C)[C@@H](O)CC(=O)O2)cs1 [Compound 4, reference compound]
0.12 nM
